Item-by-item account of monocytes
protocol.notes: Hematology assays in cynomolgus monkeys (Example 45)
Type: in vivo
stated.conditions: day 8

Example results:
[
  {
    "substance": "ISIS 417002: MOE gapmer, nucleobases 1275 to 1318 of SEQ ID NO: 1 (Table 8) (antisense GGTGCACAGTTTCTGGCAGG; MOE gapmer, wing and gap sizes not given here)",
    "measured.value": "3.3%"
  },
  {
    "substance": "ISIS 416864: MOE gapmer, nucleobases 1275 to 1318 of SEQ ID NO: 1 (Table 8) (antisense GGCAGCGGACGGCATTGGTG; MOE gapmer, wing and gap sizes not given here)",
    "measured.value": "2.1%"
  },
  {
    "substance": "ISIS 416850: MOE gapmer, nucleobases 1275 to 1318 of SEQ ID NO: 1 (Table 8) (antisense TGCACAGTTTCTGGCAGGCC; MOE gapmer, wing and gap sizes not given here)",
    "measured.value": "1.8%"
  },
  {
    "substance": "ISIS 416858: MOE gapmer, nucleobases 1275 to 1318 of SEQ ID NO: 1 (Table 8) (antisense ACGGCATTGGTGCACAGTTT; MOE gapmer, wing and gap sizes not given here)",
    "measured.value": "2.7%"
  }
]

For ISIS 416838: MOE gapmer, nucleobases 1018 to 1042 of SEQ ID NO: 1 (Table 6) (antisense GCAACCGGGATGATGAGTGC; MOE gapmer, wing and gap sizes not given here) , what is its reported monocytes? 2.5%

###

Tested on: human Factor 11 mRNA
protocol.notes: Antisense inhibition of human Factor 11 in HepG2 cells, lipofectin, 75 nM (Example 1)
Type: cell-based
stated.conditions: 75 nM antisense oligonucleotide, ~24 h, relative to untreated control cells, gapmers targeted to SEQ ID NO: 2
Strand notation (5' to 3'): a small letter for the sugar, then the base; units joined by * are phosphorothioate-linked, units joined directly phosphodiester-linked; [ ] holds rarer units or linkages, { } end groups; capitals alone tell only the bases. e = 2'-O-(2-methoxyethyl) (MOE); [5mC] = 5-methylcytosine; d = 2'-deoxy (DNA)
So basically: % inhibition at 40% or higher? That is 1. Lower than 40%? That is 0.

[
  {
    "substance": "413523 (antisense eT*e[5mC]*eA*eG*eT*dT*dT*dA*d[5mC]*d[5mC]*dT*dG*dG*dG*dA*eT*eG*e[5mC]*eT*eG) [compound 413523]",
    "system.tested": "human Factor 11 mRNA",
    "answer.label": 1
  },
  {
    "substance": "413508 (antisense eG*eT*eT*eG*eG*dT*dA*dA*dA*dA*dT*dG*d[5mC]*dA*dA*e[5mC]*e[5mC]*eA*eA*eA) [compound 413508]",
    "system.tested": "human Factor 11 mRNA",
    "answer.label": 1
  },
  {
    "substance": "413536 (antisense eT*eT*eA*eA*eT*dA*dT*dA*d[5mC]*dT*dG*d[5mC]*dA*dG*dA*eG*eA*eA*e[5mC]*e[5mC]) [compound 413536]",
    "system.tested": "human Factor 11 mRNA",
    "answer.label": 0
  },
  {
    "substance": "413522 (antisense eT*e[5mC]*eA*eA*eG*dA*dG*dT*d[5mC]*dT*dT*d[5mC]*dA*dT*dG*e[5mC]*eT*eA*e[5mC]*e[5mC]) [compound 413522]",
    "system.tested": "human Factor 11 mRNA",
    "answer.label": 1
  }
]

Does the substance 413510 (antisense eT*eG*e[5mC]*eA*eA*dG*d[5mC]*dT*dG*dG*dA*dA*dA*dT*dA*eA*eA*eA*eG*e[5mC]) [compound 413510] have recorded % inhibition that is 40% or more? 0

Proceed to 413532 (antisense eA*eG*eG*eG*eA*dA*dT*dA*dA*d[5mC]*dA*dT*dG*dA*dA*eG*eG*e[5mC]*e[5mC]*e[5mC]) [compound 413532] 0

Queued: 413518 (antisense eA*eT*eG*eG*eA*dA*dT*d[5mC]*dT*d[5mC]*dT*dT*d[5mC]*dA*dT*eT*eT*e[5mC]*eA*eT) [compound 413518] 1

Now try 413513 (antisense eT*eT*e[5mC]*eT*eG*dA*dA*dT*dA*dT*dA*d[5mC]*dA*dA*dA*eT*eT*eA*eA*eT) [compound 413513] . 0

###

protocol.notes: Hematology assays in cynomolgus monkeys (Example 45)
Assay type: in vivo
stated.conditions: day 36; escalating dose regimen
assay.readout: MCHC

Example cases with answers are listed next.
[
  {
    "substance": "ISIS 416838: MOE gapmer, nucleobases 1018 to 1042 of SEQ ID NO: 1 (Table 6) (antisense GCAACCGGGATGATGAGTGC; MOE gapmer, wing and gap sizes not given here)",
    "measured.value": "30 g/dL"
  },
  {
    "substance": "ISIS 416858: MOE gapmer, nucleobases 1275 to 1318 of SEQ ID NO: 1 (Table 8) (antisense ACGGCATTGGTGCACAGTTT; MOE gapmer, wing and gap sizes not given here)",
    "measured.value": "31 g/dL"
  }
]

# query: MCHC of entry ISIS 416864: MOE gapmer, nucleobases 1275 to 1318 of SEQ ID NO: 1 (Table 8) (antisense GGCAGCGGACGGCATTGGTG; MOE gapmer, wing and gap sizes not given here) 30 g/dL

###

protocol.notes: Hematology assays in cynomolgus monkeys (Example 45)
Format: in vivo
stated.conditions: day 36; escalating dose regimen
assay.readout: MCH (pg)
Please give a number only; it is taken to be in pg.

Worked cases, answers included:
[
  {
    "substance": "ISIS 416864: MOE gapmer, nucleobases 1275 to 1318 of SEQ ID NO: 1 (Table 8) (antisense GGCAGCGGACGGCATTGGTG; MOE gapmer, wing and gap sizes not given here)",
    "MCH, pg": 23
  },
  {
    "substance": "ISIS 416850: MOE gapmer, nucleobases 1275 to 1318 of SEQ ID NO: 1 (Table 8) (antisense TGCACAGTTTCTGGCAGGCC; MOE gapmer, wing and gap sizes not given here)",
    "MCH, pg": 23
  }
]

Attention now shifts to the item below.
Requested field: MCH. Item: ISIS 416858: MOE gapmer, nucleobases 1275 to 1318 of SEQ ID NO: 1 (Table 8) (antisense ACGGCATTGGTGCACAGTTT; MOE gapmer, wing and gap sizes not given here) 23

###

Each entry below carries its recorded percent inhibition of Factor 11 activity, relative to PBS control.
Tested on: Factor 11 activity
protocol.notes: Factor 11 protein activity, F11 assay based on clotting time (Example 45)
Assay type: in vivo, cynomolgus monkeys
stated.conditions: day 57; escalating dose regimen
Report as a plain number; the unit % is understood.

The examples below pair each entry with its known result.
[
  {
    "substance": "ISIS 416858: MOE gapmer, nucleobases 1275 to 1318 of SEQ ID NO: 1 (Table 8) (antisense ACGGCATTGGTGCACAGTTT; MOE gapmer, wing and gap sizes not given here)",
    "measured.value": 60
  },
  {
    "substance": "ISIS 416864: MOE gapmer, nucleobases 1275 to 1318 of SEQ ID NO: 1 (Table 8) (antisense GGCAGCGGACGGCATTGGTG; MOE gapmer, wing and gap sizes not given here)",
    "measured.value": 7
  },
  {
    "substance": "ISIS 416838: MOE gapmer, nucleobases 1018 to 1042 of SEQ ID NO: 1 (Table 6) (antisense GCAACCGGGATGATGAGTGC; MOE gapmer, wing and gap sizes not given here)",
    "measured.value": 10
  },
  {
    "substance": "ISIS 417002: MOE gapmer, nucleobases 1275 to 1318 of SEQ ID NO: 1 (Table 8) (antisense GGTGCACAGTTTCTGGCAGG; MOE gapmer, wing and gap sizes not given here)",
    "measured.value": 24
  }
]

Here is another substance to look at.
What measured percent inhibition of Factor 11 activity, relative to PBS control goes with ISIS 416850: MOE gapmer, nucleobases 1275 to 1318 of SEQ ID NO: 1 (Table 8) (antisense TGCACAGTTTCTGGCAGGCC; MOE gapmer, wing and gap sizes not given here) ? 49

###

System: IL-1β, IL-6, IFN-γ, TNF-α, IL-8, MIP-1α, MCP-1, MIP-1β, RANTES
protocol.notes: Cytokine and chemokine assays in cynomolgus monkeys (Example 46)
Format: in vivo
stated.conditions: day 55
Strand notation (5' to 3'): a small letter for the sugar, then the base; units joined by * are phosphorothioate-linked, units joined directly phosphodiester-linked; [ ] holds rarer units or linkages, { } end groups; capitals alone tell only the bases. e = 2'-O-(2-methoxyethyl) (MOE); [5mC] = 5-methylcytosine; d = 2'-deoxy (DNA)
Respond with label 1 for IFN-γ level values of 20 pg/mL and above, label 0 for values below.

Please review the entries below; each comes with its answer.
[
  {
    "substance": "ISIS 449708: 3-8-3, 4-8-4, 2-10-2, 3-10-3 or 4-10-4 MOE microwalk gapmer (Table 46) (antisense eA*e[5mC]*eA*dG*dT*dT*dT*d[5mC]*dT*dG*dG*e[5mC]*eA*eG)",
    "system.tested": "IL-1β, IL-6, IFN-γ, TNF-α, IL-8, MIP-1α, MCP-1, MIP-1β, RANTES",
    "answer.label": "label 0"
  },
  {
    "substance": "ISIS 445522: 5-8-5 or 6-8-6 MOE microwalk gapmer (Table 44) (antisense eG*e[5mC]*eA*e[5mC]*eA*dG*dT*dT*dT*d[5mC]*dT*dG*dG*e[5mC]*eA*eG*eG*e[5mC])",
    "system.tested": "IL-1β, IL-6, IFN-γ, TNF-α, IL-8, MIP-1α, MCP-1, MIP-1β, RANTES",
    "answer.label": "label 1"
  },
  {
    "substance": "ISIS 449710: 3-8-3, 4-8-4, 2-10-2, 3-10-3 or 4-10-4 MOE microwalk gapmer (Table 46) (antisense e[5mC]*eA*e[5mC]*dA*dG*dT*dT*dT*d[5mC]*dT*dG*dG*d[5mC]*eA*eG*eG)",
    "system.tested": "IL-1β, IL-6, IFN-γ, TNF-α, IL-8, MIP-1α, MCP-1, MIP-1β, RANTES",
    "answer.label": "label 1"
  },
  {
    "substance": "ISIS 449709: 3-8-3, 4-8-4, 2-10-2, 3-10-3 or 4-10-4 MOE microwalk gapmer (Table 46) (antisense eG*e[5mC]*eA*e[5mC]*dA*dG*dT*dT*dT*d[5mC]*dT*dG*dG*d[5mC]*eA*eG*eG*e[5mC])",
    "system.tested": "IL-1β, IL-6, IFN-γ, TNF-α, IL-8, MIP-1α, MCP-1, MIP-1β, RANTES",
    "answer.label": "label 1"
  },
  {
    "substance": "ISIS 449711: 3-8-3, 4-8-4, 2-10-2, 3-10-3 or 4-10-4 MOE microwalk gapmer (Table 46) (antisense eA*e[5mC]*dA*dG*dT*dT*dT*d[5mC]*dT*dG*dG*d[5mC]*eA*eG)",
    "system.tested": "IL-1β, IL-6, IFN-γ, TNF-α, IL-8, MIP-1α, MCP-1, MIP-1β, RANTES",
    "answer.label": "label 1"
  }
]

Exam item: decide whether the reported IFN-γ level for ISIS 416850: MOE gapmer, nucleobases 1275 to 1318 of SEQ ID NO: 1 (Table 8) (antisense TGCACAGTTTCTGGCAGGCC; MOE gapmer, wing and gap sizes not given here) is at least 20 pg/mL. label 0

Same again, this time with ISIS 445531: 5-8-5 or 6-8-6 MOE microwalk gapmer (Table 44) (antisense eG*eG*e[5mC]*eA*eT*dT*dG*dG*dT*dG*d[5mC]*dA*d[5mC]*eA*eG*eT*eT*eT) label 0

What do we get for ISIS 449707: 3-8-3, 4-8-4, 2-10-2, 3-10-3 or 4-10-4 MOE microwalk gapmer (Table 46) (antisense e[5mC]*eA*e[5mC]*eA*dG*dT*dT*dT*d[5mC]*dT*dG*dG*e[5mC]*eA*eG*eG) ? label 1

Follow-up entry: ISIS 416858: MOE gapmer, nucleobases 1275 to 1318 of SEQ ID NO: 1 (Table 8) (antisense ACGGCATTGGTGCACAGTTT; MOE gapmer, wing and gap sizes not given here) label 0
